Target: T1, TL1A in human blood (human, UniProt O95150 72-251, limits assumed)
T1 sequence (looked up): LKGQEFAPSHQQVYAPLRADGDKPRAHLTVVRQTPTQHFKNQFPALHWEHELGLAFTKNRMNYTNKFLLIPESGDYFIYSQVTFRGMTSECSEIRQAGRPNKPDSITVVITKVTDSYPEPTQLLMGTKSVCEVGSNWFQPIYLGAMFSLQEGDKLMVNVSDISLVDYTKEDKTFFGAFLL
Assay: cell-based or functional assay
Measure: % Inhibition at 10 nM Ig; interferon gamma release in human blood (%)
Give the value in % but do not write % after it.

In: Name the reported % Inhibition at 10 nM Ig; interferon gamma release in human blood value associated with the binder A220 (antibody, IgG1, V domains shown) VH: QVQLVQSGAEVKKPGASVKVSCKASGFDIQDTYMHWVKQRPGQGLEWMGRIDPASGHTKYDPKFQVRVTMTRDTSTSTAYLELSSLRSEDTAVYYCARSGGLPDVWGQGTTVTVSS VL: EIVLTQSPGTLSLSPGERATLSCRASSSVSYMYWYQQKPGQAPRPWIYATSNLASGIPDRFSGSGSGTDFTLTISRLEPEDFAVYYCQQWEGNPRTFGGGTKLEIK
Out: 63.2

In: For A217 (antibody, IgG1, V domains shown) VH: QVQLVQSGAEVKKPGASVKVSCKASGFDIQDTYMHWVKQRPGQGLEWMGRIDPASGHTKYDPKFQVRVTITRDTSTSTVYMELSSLRSEDTAVYYCARSGGLPDVWGQGTTVTVSS VL: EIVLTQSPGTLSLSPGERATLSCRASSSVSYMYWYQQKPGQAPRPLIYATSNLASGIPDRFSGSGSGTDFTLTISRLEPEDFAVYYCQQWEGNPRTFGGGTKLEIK then?
Out: 72.2

In: For A213 (antibody, IgG1, V domains shown) VH: QVQLVQSGAEVKKPGASVKVSCKASGFDIQDTYMHWVRQRPGQGLEWMGRIDPASGHTKYDPKFQVRVTITTDTSTSTVYMELSSLRSEDTAVYYCARSGGLPDVWGQGTTVTVSS VL: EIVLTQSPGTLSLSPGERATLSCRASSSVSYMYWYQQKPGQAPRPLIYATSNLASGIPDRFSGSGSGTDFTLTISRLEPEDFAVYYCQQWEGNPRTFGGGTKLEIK then?
Out: 69.8
